- Measured on: acetylcholine receptor
- Procedure details: SPR, AchR immobilised on chip, peptide at 10 uM
Metric: Binding affinity (RU)

• KVRYKK [6mer-2-295] = 145
• RGFYKK [6mer-2-326] = 142
• RWYYRK [6mer-2-299] = 141
• KLYYRR [6mer-2-294] = 135
